// provenance: patent US11285132B2

System: HBL-1
Experiment: 72 hr CellTiter-Glo, DLBCL cell line
Assay type: cell-based
Conditions: HBL1

| Compound | IC50 (nM) |
| --- | --- |
| O=C(CC1(O)C(=O)Nc2c(Cl)ccc(Cl)c21)c1ccc(C2CC2)cc1 (stereo not shown) [TK216] | 304 |

----------
Tested on: WSU-DLCL2
Test: 72 hr CellTiter-Glo, DLBCL cell line
Assay type: cell-based
Details: Homo sapiens, WSUDLCL2
pIC50: −log10 of the molar value.
Readout Type: pIC50

| Molecule | Recorded Value |
| --- | --- |
| O=C(CC1(O)C(=O)Nc2c(Cl)ccc(Cl)c21)c1ccc(C2CC2)cc1 (stereo not shown) | 6.05 |

----------
Target: EWS-FLI1 (Homo sapiens, UniProt Q01543+Q01844)
Construct: EWS (part of EWSR1, Q01844)
Sequence (Q01543 220-452 limits assumed, one chain of several): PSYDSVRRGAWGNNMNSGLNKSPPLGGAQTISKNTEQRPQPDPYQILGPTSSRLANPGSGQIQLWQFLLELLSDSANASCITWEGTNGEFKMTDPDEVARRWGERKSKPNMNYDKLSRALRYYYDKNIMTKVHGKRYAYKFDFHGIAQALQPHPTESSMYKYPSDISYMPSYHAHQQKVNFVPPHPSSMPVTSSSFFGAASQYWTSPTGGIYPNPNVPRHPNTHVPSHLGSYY
Test: EWS-FLI1 / NROB1 reporter-luciferase transcription in COS7 cells
Conditions: COS7 cells transfected with a EWS-FLI1 responsive promoter; read-out: EC50, transcriptional decrease
Readout Type: EC50

| Compound | Measured Target | Recorded Value |
| --- | --- | --- |
| O=C(CC1(O)C(=O)Nc2c(Cl)ccc(Cl)c21)c1ccc(C2CC2)cc1 (stereo not shown) [TK216] | EWS-FLI1 (Homo sapiens, UniProt Q01543+Q01844) | < 100 nM |

----------
Test system: 56 lymphoma cell lines
Assay: MTT proliferation, 56 lymphoma cell lines, 72 h
Format: cell-based
Conditions: 95% C.I.: 367-506, read-out: median IC50
pIC50: −log10 of the molar value.

| Compound | pIC50 |
| --- | --- |
| O=C(CC1(O)C(=O)Nc2c(Cl)ccc(Cl)c21)c1ccc(C2CC2)cc1 (stereo not shown) | 6.35 |

----------
System: DOHH2
Experiment: 72 hr CellTiter-Glo, DLBCL cell line
Assay type: cell-based
Conditions: Homo sapiens, DOHH-2

| Compound | Measured Target | IC50 |
| --- | --- | --- |
| O=C(CC1(O)C(=O)Nc2c(Cl)ccc(Cl)c21)c1ccc(C2CC2)cc1 (stereo not shown) | DOHH2 | 160 nM |

----------
Tested on: MOLM-13
Assay: 72 hr CellTiter-Glo, AML cell line
Assay type: cell-based
Settings: Homo sapiens

| Compound | IC50 / nM |
| --- | --- |
| O=C(CC1(O)C(=O)Nc2c(Cl)ccc(Cl)c21)c1ccc(C2CC2)cc1 (stereo not shown) [TK216] | 228 |
